System: Mycobacterium tuberculosis Erdman (autoluminescent)
Assay: Einf, fitted maximum growth inhibition of three-drug combination (fraction); higher = stronger maximal inhibition
Settings: in vitro model: dormancy (butyrate + nitrate, low O2); time point: constant (~7 days, model-specific)
quantity_kind: Einf
Enter the number alone.

Answered examples (3):
COc1nc2ccc(Br)cc2cc1[C@@H](c1ccccc1)[C@@](O)(CCN(C)C)c1cccc2ccccc12 [bedaquiline] + CC[C@@H](CO)NCCN[C@@H](CC)CO [ethambutol] + NNC(=O)c1ccncc1 [isoniazid] = 0.849
COc1c(N2C[C@@H]3CCCN[C@@H]3C2)c(F)cc2c(=O)c(C(=O)O)cn(C3CC3)c12 [moxifloxacin] + O=[N+]([O-])c1cn2c(n1)OC[C@@H](OCc1ccc(OC(F)(F)F)cc1)C2 [pretomanid] + CO[C@H]1/C=C/O[C@@]2(C)Oc3c(C)c(O)c4c(O)c(c(/C=N/N5CCN(C)CC5)c(O)c4c3C2=O)NC(=O)/C(C)=C\C=C\[C@H](C)[C@H](O)[C@@H](C)[C@@H](O)[C@@H](C)[C@H](OC(C)=O)[C@@H]1C = 0.883
NNC(=O)c1ccncc1 [isoniazid] + O=[N+]([O-])c1cn2c(n1)OC[C@@H](OCc1ccc(OC(F)(F)F)cc1)C2 [pretomanid] + CO[C@H]1/C=C/O[C@@]2(C)Oc3c(C)c(O)c4c(O)c(c(/C=N/N5CCN(C)CC5)c(O)c4c3C2=O)NC(=O)/C(C)=C\C=C\[C@H](C)[C@H](O)[C@@H](C)[C@@H](O)[C@@H](C)[C@H](OC(C)=O)[C@@H]1C [rifampicin] = 0.857

Query: Would you mind telling me what Einf value was observed for NNC(=O)c1ccncc1 [isoniazid] + COc1c(N2C[C@@H]3CCCN[C@@H]3C2)c(F)cc2c(=O)c(C(=O)O)cn(C3CC3)c12 [moxifloxacin] + O=[N+]([O-])c1cn2c(n1)OC[C@@H](OCc1ccc(OC(F)(F)F)cc1)C2 [pretomanid] ?
Reply: 0.873

* * *

The compounds listed here are annotated with their total FIC50.
Tested on: Mycobacterium tuberculosis Erdman (autoluminescent)
Assay: total FIC50 (Loewe) at 50% inhibition, three-drug combination (log2); higher = more antagonistic
Conditions: in vitro model: dormancy (butyrate + nitrate, low O2); time point: constant (~7 days, model-specific)
Enter the number alone.

Answered examples (2):
NNC(=O)c1ccncc1 [isoniazid] + COc1c(N2C[C@@H]3CCCN[C@@H]3C2)c(F)cc2c(=O)c(C(=O)O)cn(C3CC3)c12 [moxifloxacin] + CO[C@H]1/C=C/O[C@@]2(C)Oc3c(C)c(O)c4c(O)c(c(/C=N/N5CCN(C6CCCC6)CC5)c(O)c4c3C2=O)NC(=O)/C(C)=C\C=C\[C@H](C)[C@H](O)[C@@H](C)[C@@H](O)[C@@H](C)[C@H](OC(C)=O)[C@@H]1C [rifapentine] = 0.401
CC(C)/N=c1\cc2n(-c3ccc(Cl)cc3)c3ccccc3nc-2cc1Nc1ccc(Cl)cc1 [clofazimine] + COc1c(N2C[C@@H]3CCCN[C@@H]3C2)c(F)cc2c(=O)c(C(=O)O)cn(C3CC3)c12 [moxifloxacin] + CO[C@H]1/C=C/O[C@@]2(C)Oc3c(C)c(O)c4c(O)c(c(/C=N/N5CCN(C)CC5)c(O)c4c3C2=O)NC(=O)/C(C)=C\C=C\[C@H](C)[C@H](O)[C@@H](C)[C@@H](O)[C@@H](C)[C@H](OC(C)=O)[C@@H]1C [rifampicin] = 0.282

Now let's try a different one.
Query: Would you mind telling me what total FIC50 value was observed for COc1nc2ccc(Br)cc2cc1[C@@H](c1ccccc1)[C@@](O)(CCN(C)C)c1cccc2ccccc12 [bedaquiline] + NNC(=O)c1ccncc1 [isoniazid] + COc1c(N2C[C@@H]3CCCN[C@@H]3C2)c(F)cc2c(=O)c(C(=O)O)cn(C3CC3)c12 [moxifloxacin] ?
Reply: 0.895

* * *

Tested on: Mycobacterium tuberculosis Erdman (autoluminescent)
Experiment: total FIC50 (Loewe) at 50% inhibition, three-drug combination (log2); higher = more antagonistic
Conditions: in vitro model: standard 7H9 glycerol; time point: constant = terminal
quantity_kind: total FIC50
Enter the number alone.

COc1nc2ccc(Br)cc2cc1[C@@H](c1ccccc1)[C@@](O)(CCN(C)C)c1cccc2ccccc12 [bedaquiline] + NNC(=O)c1ccncc1 [isoniazid] + CC(=O)NC[C@H]1CN(c2ccc(N3CCOCC3)c(F)c2)C(=O)O1 [linezolid] = 0.0514
CC(=O)NC[C@H]1CN(c2ccc(N3CCOCC3)c(F)c2)C(=O)O1 [linezolid] + NC(=O)c1cnccn1 [pyrazinamide] + CO[C@H]1/C=C/O[C@@]2(C)Oc3c(C)c(O)c4c(O)c(c(/C=N/N5CCN(C)CC5)c(O)c4c3C2=O)NC(=O)/C(C)=C\C=C\[C@H](C)[C@H](O)[C@@H](C)[C@@H](O)[C@@H](C)[C@H](OC(C)=O)[C@@H]1C [rifampicin] = -0.168
CC(=O)NC[C@H]1CN(c2ccc(N3CCOCC3)c(F)c2)C(=O)O1 [linezolid] + O=[N+]([O-])c1cn2c(n1)OC[C@@H](OCc1ccc(OC(F)(F)F)cc1)C2 [pretomanid] + CO[C@H]1/C=C/O[C@@]2(C)Oc3c(C)c(O)c4c(O)c(c(/C=N/N5CCN(C6CCCC6)CC5)c(O)c4c3C2=O)NC(=O)/C(C)=C\C=C\[C@H](C)[C@H](O)[C@@H](C)[C@@H](O)[C@@H](C)[C@H](OC(C)=O)[C@@H]1C [rifapentine] = 0.424
COc1nc2ccc(Br)cc2cc1[C@@H](c1ccccc1)[C@@](O)(CCN(C)C)c1cccc2ccccc12 [bedaquiline] + CC(C)/N=c1\cc2n(-c3ccc(Cl)cc3)c3ccccc3nc-2cc1Nc1ccc(Cl)cc1 [clofazimine] + COc1c(N2C[C@@H]3CCCN[C@@H]3C2)c(F)cc2c(=O)c(C(=O)O)cn(C3CC3)c12 [moxifloxacin] = -0.176

Query: Would you mind telling me what total FIC50 value was observed for CC(=O)NC[C@H]1CN(c2ccc(N3CCOCC3)c(F)c2)C(=O)O1 [linezolid] + O=[N+]([O-])c1cn2c(n1)OC[C@@H](OCc1ccc(OC(F)(F)F)cc1)C2 [pretomanid] + CO[C@H]1/C=C/O[C@@]2(C)Oc3c(C)c(O)c4c(O)c(c(/C=N/N5CCN(C)CC5)c(O)c4c3C2=O)NC(=O)/C(C)=C\C=C\[C@H](C)[C@H](O)[C@@H](C)[C@@H](O)[C@@H](C)[C@H](OC(C)=O)[C@@H]1C [rifampicin] ?
Reply: 0.0346

Query: Would you mind telling me what total FIC50 value was observed for CC(C)/N=c1\cc2n(-c3ccc(Cl)cc3)c3ccccc3nc-2cc1Nc1ccc(Cl)cc1 [clofazimine] + NC(=O)c1cnccn1 [pyrazinamide] + CO[C@H]1/C=C/O[C@@]2(C)Oc3c(C)c(O)c4c(O)c(c(/C=N/N5CCN(C6CCCC6)CC5)c(O)c4c3C2=O)NC(=O)/C(C)=C\C=C\[C@H](C)[C@H](O)[C@@H](C)[C@@H](O)[C@@H](C)[C@H](OC(C)=O)[C@@H]1C [rifapentine] ?
Reply: -0.0271

Query: Would you mind telling me what total FIC50 value was observed for CC(=O)NC[C@H]1CN(c2ccc(N3CCOCC3)c(F)c2)C(=O)O1 [linezolid] + NC(=O)c1cnccn1 [pyrazinamide] + CO[C@H]1/C=C/O[C@@]2(C)Oc3c(C)c(O)c4c(O)c(c(/C=N/N5CCN(C6CCCC6)CC5)c(O)c4c3C2=O)NC(=O)/C(C)=C\C=C\[C@H](C)[C@H](O)[C@@H](C)[C@@H](O)[C@@H](C)[C@H](OC(C)=O)[C@@H]1C [rifapentine] ?
Reply: 0.187

* * *

The compounds listed here are annotated with their total FIC50.
Tested on: Mycobacterium tuberculosis Erdman (autoluminescent)
Test: total FIC50 (Loewe) at 50% inhibition, three-drug combination (log2); higher = more antagonistic
Details: in vitro model: cholesterol 0.05 mM; time point: terminal (~4-5 doublings, model-specific)
Enter the number alone.

Answered examples (2):
COc1c(N2C[C@@H]3CCCN[C@@H]3C2)c(F)cc2c(=O)c(C(=O)O)cn(C3CC3)c12 [moxifloxacin] + O=[N+]([O-])c1cn2c(n1)OC[C@@H](OCc1ccc(OC(F)(F)F)cc1)C2 [pretomanid] + NC(=O)c1cnccn1 [pyrazinamide] = 1.11
COc1nc2ccc(Br)cc2cc1[C@@H](c1ccccc1)[C@@](O)(CCN(C)C)c1cccc2ccccc12 [bedaquiline] + NC(=O)c1cnccn1 [pyrazinamide] + CO[C@H]1/C=C/O[C@@]2(C)Oc3c(C)c(O)c4c(O)c(c(/C=N/N5CCN(C)CC5)c(O)c4c3C2=O)NC(=O)/C(C)=C\C=C\[C@H](C)[C@H](O)[C@@H](C)[C@@H](O)[C@@H](C)[C@H](OC(C)=O)[C@@H]1C [rifampicin] = 1.1

Query: Find the measured total FIC50: item NNC(=O)c1ccncc1 [isoniazid] + CC(=O)NC[C@H]1CN(c2ccc(N3CCOCC3)c(F)c2)C(=O)O1 [linezolid] + CO[C@H]1/C=C/O[C@@]2(C)Oc3c(C)c(O)c4c(O)c(c(/C=N/N5CCN(C6CCCC6)CC5)c(O)c4c3C2=O)NC(=O)/C(C)=C\C=C\[C@H](C)[C@H](O)[C@@H](C)[C@@H](O)[C@@H](C)[C@H](OC(C)=O)[C@@H]1C [rifapentine] , target or system Mycobacterium tuberculosis Erdman (autoluminescent).
Reply: 0.542

Query: Find the measured total FIC50: item CC(=O)NC[C@H]1CN(c2ccc(N3CCOCC3)c(F)c2)C(=O)O1 [linezolid] + COc1c(N2C[C@@H]3CCCN[C@@H]3C2)c(F)cc2c(=O)c(C(=O)O)cn(C3CC3)c12 [moxifloxacin] + CO[C@H]1/C=C/O[C@@]2(C)Oc3c(C)c(O)c4c(O)c(c(/C=N/N5CCN(C)CC5)c(O)c4c3C2=O)NC(=O)/C(C)=C\C=C\[C@H](C)[C@H](O)[C@@H](C)[C@@H](O)[C@@H](C)[C@H](OC(C)=O)[C@@H]1C [rifampicin] , target or system Mycobacterium tuberculosis Erdman (autoluminescent).
Reply: 4.84

Query: Find the measured total FIC50: item CC(=O)NC[C@H]1CN(c2ccc(N3CCOCC3)c(F)c2)C(=O)O1 [linezolid] + COc1c(N2C[C@@H]3CCCN[C@@H]3C2)c(F)cc2c(=O)c(C(=O)O)cn(C3CC3)c12 [moxifloxacin] + O=[N+]([O-])c1cn2c(n1)OC[C@@H](OCc1ccc(OC(F)(F)F)cc1)C2 [pretomanid] , target or system Mycobacterium tuberculosis Erdman (autoluminescent).
Reply: 0.534

Query: Find the measured total FIC50: item COc1nc2ccc(Br)cc2cc1[C@@H](c1ccccc1)[C@@](O)(CCN(C)C)c1cccc2ccccc12 [bedaquiline] + CC(=O)NC[C@H]1CN(c2ccc(N3CCOCC3)c(F)c2)C(=O)O1 [linezolid] + CO[C@H]1/C=C/O[C@@]2(C)Oc3c(C)c(O)c4c(O)c(c(/C=N/N5CCN(C6CCCC6)CC5)c(O)c4c3C2=O)NC(=O)/C(C)=C\C=C\[C@H](C)[C@H](O)[C@@H](C)[C@@H](O)[C@@H](C)[C@H](OC(C)=O)[C@@H]1C [rifapentine] , target or system Mycobacterium tuberculosis Erdman (autoluminescent).
Reply: 0.0726

Query: Find the measured total FIC50: item CC(C)/N=c1\cc2n(-c3ccc(Cl)cc3)c3ccccc3nc-2cc1Nc1ccc(Cl)cc1 [clofazimine] + NNC(=O)c1ccncc1 [isoniazid] + CC(=O)NC[C@H]1CN(c2ccc(N3CCOCC3)c(F)c2)C(=O)O1 [linezolid] , target or system Mycobacterium tuberculosis Erdman (autoluminescent).
Reply: 4.56

Query: Find the measured total FIC50: item CC[C@@H](CO)NCCN[C@@H](CC)CO [ethambutol] + O=[N+]([O-])c1cn2c(n1)OC[C@@H](OCc1ccc(OC(F)(F)F)cc1)C2 [pretomanid] + CO[C@H]1/C=C/O[C@@]2(C)Oc3c(C)c(O)c4c(O)c(c(/C=N/N5CCN(C)CC5)c(O)c4c3C2=O)NC(=O)/C(C)=C\C=C\[C@H](C)[C@H](O)[C@@H](C)[C@@H](O)[C@@H](C)[C@H](OC(C)=O)[C@@H]1C [rifampicin] , target or system Mycobacterium tuberculosis Erdman (autoluminescent).
Reply: 0.863

Query: Find the measured total FIC50: item COc1nc2ccc(Br)cc2cc1[C@@H](c1ccccc1)[C@@](O)(CCN(C)C)c1cccc2ccccc12 [bedaquiline] + CC[C@@H](CO)NCCN[C@@H](CC)CO [ethambutol] + NC(=O)c1cnccn1 [pyrazinamide] , target or system Mycobacterium tuberculosis Erdman (autoluminescent).
Reply: 1.2

Query: Find the measured total FIC50: item CC(C)/N=c1\cc2n(-c3ccc(Cl)cc3)c3ccccc3nc-2cc1Nc1ccc(Cl)cc1 [clofazimine] + NNC(=O)c1ccncc1 [isoniazid] + CO[C@H]1/C=C/O[C@@]2(C)Oc3c(C)c(O)c4c(O)c(c(/C=N/N5CCN(C)CC5)c(O)c4c3C2=O)NC(=O)/C(C)=C\C=C\[C@H](C)[C@H](O)[C@@H](C)[C@@H](O)[C@@H](C)[C@H](OC(C)=O)[C@@H]1C [rifampicin] , target or system Mycobacterium tuberculosis Erdman (autoluminescent).
Reply: 1.25

Query: Find the measured total FIC50: item CC[C@@H](CO)NCCN[C@@H](CC)CO [ethambutol] + NC(=O)c1cnccn1 [pyrazinamide] + CO[C@H]1/C=C/O[C@@]2(C)Oc3c(C)c(O)c4c(O)c(c(/C=N/N5CCN(C6CCCC6)CC5)c(O)c4c3C2=O)NC(=O)/C(C)=C\C=C\[C@H](C)[C@H](O)[C@@H](C)[C@@H](O)[C@@H](C)[C@H](OC(C)=O)[C@@H]1C [rifapentine] , target or system Mycobacterium tuberculosis Erdman (autoluminescent).
Reply: 1.58

Query: Find the measured total FIC50: item CC(C)/N=c1\cc2n(-c3ccc(Cl)cc3)c3ccccc3nc-2cc1Nc1ccc(Cl)cc1 [clofazimine] + CC[C@@H](CO)NCCN[C@@H](CC)CO [ethambutol] + COc1c(N2C[C@@H]3CCCN[C@@H]3C2)c(F)cc2c(=O)c(C(=O)O)cn(C3CC3)c12 [moxifloxacin] , target or system Mycobacterium tuberculosis Erdman (autoluminescent).
Reply: 1.19

Origin of the recorded values: the supplement of paper PMC8617591
